# Target Or Test System: HPK1 (Homo sapiens (Human))
pIC50: −log10 of the molar value. Where a name gives a salt, the structure may show the parent alone.
Measured Property: pIC50

molecule=Cc1cc(Nc2cnc(-c3ccnc4c3ccn4C)c3c2C(=O)NC3)nc(N2CC[C@H]3CN(C)C[C@H]32)c1 observed_value="> 7.00"
molecule="O=C1NCc2c(-c3cnc4cc(F)ccn34)ccc(Nc3ccc([C@H]4CCOC4)c(CN4CC[C@H](F)C4)n3)c21 (stereo in doubt)" observed_value="> 7.00"
molecule=Cc1ccn2c(-c3ccc(Nc4ccc(N5CCO[C@@H](C(C)(C)O)C5)cn4)c4c3CNC4=O)cnc2c1F observed_value="> 7.00"
molecule=O=C1NCc2c(-c3cnc4cc(C(F)F)ccn34)ccc(Nc3ccc(N4CCC(O)CC4)cn3)c21 observed_value="> 7.00"
molecule=O=C1NCc2c(-c3cnc4cc(F)ccn34)ccc(Nc3cnn(C4CCOCC4)c3)c21 observed_value="6.00 to 7.00"
molecule="C[C@H]1CN(c2ccc(Nc3ccc(-c4cnc5cc(F)ccn45)c4c3C(=O)NC4)nc2CN(C)C)CCO1 [I-529, Bis formic acid salt]" observed_value="> 7.00"
molecule=CN1CCN(c2ccc(Nc3cnc(-c4cnn5c4CCC5)c4c3C(=O)NC4)nc2)CC1 observed_value="6.00 to 7.00"

###

# Target Or Test System: HPK1 (Homo sapiens (Human))
pIC50: −log10 of the molar value. Where a name gives a salt, the structure may show the parent alone.
Let's look at some molecules and their measured pIC50.
Measured Property: pIC50

molecule=O=C1NCc2c(-c3cnc4cccnn34)ccc(Nc3ccc(N4CCNCC4)cn3)c21 observed_value="> 7.00"
molecule=CN1CCN(c2ccc(Nc3ccc(-c4c[nH]c5ccncc45)c4c3C(=O)NC4)nc2)CC1 observed_value="> 7.00"
molecule=Cn1ccc2c(-c3ccc(Nc4ccc(N5CCC(O)CC5)cn4)c4c3CNC4=O)ncnc21 observed_value="> 7.00"
molecule="CN(C)C1COCCN(c2ccc(Nc3ccc(-c4cnc5cc(F)ccn45)c4c3C(=O)NC4)nc2)C1 (stereo not shown) [I-509, Formic acid salt]" observed_value="> 7.00"
molecule=Cn1ccc2c(-c3ncc(Nc4cccc(N5C[C@H](CN6CCC6)CCC5=O)n4)c4c3CNC4=O)ccnc21 observed_value="6.00 to 7.00"
molecule=CN(C)Cc1nc(Nc2ccc(-c3cnc4cc(F)ccn34)c3c2C(=O)NC3)ccc1[C@]1(O)CCOC1 observed_value="> 7.00"
molecule=Cc1cc(Nc2cnc(-c3ccnc4c3ccn4C)c3c2C(=O)NC3)nc(N2CC[C@@H]3CN(C)C[C@@H]32)c1 observed_value="6.00 to 7.00"
molecule=Cc1ccc2c(-c3ccc(Nc4ccc(N5CCN(C)CC5)cn4)c4c3CNC4=O)c[nH]c2c1 observed_value="6.00 to 7.00"
molecule=CN1CCN(c2cccc(Nc3ccc(-c4ccnc5c4ccn5C)c4c3C(=O)NC4)n2)CC1 observed_value="> 7.00"
molecule=C[C@H](c1ccc(Nc2ccc(-c3cnc4cc(F)ccn34)c3c2C(=O)NC3)nc1)N1CCC(O)CC1 observed_value="> 7.00"
molecule=CN(C)Cc1nc(Nc2ccc(-c3cnc4cc(F)ccn34)c3c2C(=O)NC3)ccc1[C@@H]1CCN(C)C(=O)C1 observed_value="> 7.00"
molecule=CC(C)(O)[C@@H]1CCCN(c2ccc(Nc3cnc(-c4cnc5ccccn45)c4c3C(=O)NC4)nc2)C1 observed_value="> 7.00"
molecule=CN(C)Cc1nc(Nc2ccc(-c3cnc4cnccn34)c3c2C(=O)NC3)ccc1[C@H]1CCOC1 observed_value="> 7.00"
molecule=Cn1ccc2c(-c3ncc(Nc4cccc(N5CCNCC5)n4)c4c3CNC4=O)ccnc21 observed_value="> 7.00"
molecule=Cn1ccc2c(-c3ccc(Nc4ccc(N5CCC(O)CC5)cn4)c4c3CNC4=O)cnc-2c1 observed_value="> 7.00"
molecule=CN1CCN(c2ccc(Nc3ccc(-c4ccnc5c4cnn5C)c4c3C(=O)NC4)nc2)CC1 observed_value="6.00 to 7.00"
molecule=CN1CCN(c2ccc(Nc3ccc(-c4cnn5cccnc45)c4c3C(=O)NC4)nc2)CC1 observed_value="> 7.00"
molecule=O=C1NCc2c(-c3cnc4cc(F)ccn34)ccc(Nc3ccc([C@@H]4CCOC4)c(CN4CC[C@@H](O)C4)n3)c21 observed_value="> 7.00"
molecule=Cn1ccc2c(-c3ncc(Nc4ccc(N5C[C@@H]6C[C@H]5CO6)cn4)c4c3CNC4=O)ccnc21 observed_value="> 7.00"
molecule=O=C1NCc2c(-c3c[nH]c4ccccc34)ncc(Nc3ccc(N4CCNCC4)cn3)c21 observed_value="6.00 to 7.00"
molecule=Cc1cccn2c(-c3ccc(Nc4ccc(N5CCC(O)CC5)cn4)c4c3CNC4=O)cnc12 observed_value="> 7.00"
molecule="CN1CCN(c2ccc(Nc3cnc(-c4cnc5c(F)cccn45)c4c3C(=O)NC4)nc2)C[C@H]1C(C)(C)O (stereo in doubt)" observed_value="> 7.00"
molecule=Cn1ccc2c(-c3ccc(Nc4ccc(N5CCOCC5)cn4)c4c3CNC4=O)ccnc21 observed_value="> 7.00"
molecule="CN(C)C1CN(c2nc(Nc3ccc(-c4cnc5cc(F)ccn45)c4c3C(=O)NC4)ccc2C2CCOC2)C1 (stereo in doubt)" observed_value="> 7.00"
molecule="CN(C)Cc1nc(Nc2ccc(-c3cnc4cc(F)ccn34)c3c2C(=O)NC3)cnc1C1CCOC1 (stereo in doubt)" observed_value="> 7.00"
molecule=Cn1ccc2c(-c3ccc(Nc4ccc(N5CCC[C@H](N)C5)cn4)c4c3CNC4=O)ccnc21 observed_value="> 7.00"
molecule=O=C1NCc2c(-c3cnc4cc(F)ccn34)ccc(Nc3ccc(N4CC[C@@H](O)[C@H](F)C4)cn3)c21 observed_value="> 7.00"
molecule=Cc1ccn2c(-c3ccc(Nc4ccc(N5CCNCC5)cn4)c4c3CNC4=O)cnc2c1 observed_value="> 7.00"

###

# Target Or Test System: HPK1 (Homo sapiens (Human), UniProt Q92918)
# Sequence (Q92918 whole entry): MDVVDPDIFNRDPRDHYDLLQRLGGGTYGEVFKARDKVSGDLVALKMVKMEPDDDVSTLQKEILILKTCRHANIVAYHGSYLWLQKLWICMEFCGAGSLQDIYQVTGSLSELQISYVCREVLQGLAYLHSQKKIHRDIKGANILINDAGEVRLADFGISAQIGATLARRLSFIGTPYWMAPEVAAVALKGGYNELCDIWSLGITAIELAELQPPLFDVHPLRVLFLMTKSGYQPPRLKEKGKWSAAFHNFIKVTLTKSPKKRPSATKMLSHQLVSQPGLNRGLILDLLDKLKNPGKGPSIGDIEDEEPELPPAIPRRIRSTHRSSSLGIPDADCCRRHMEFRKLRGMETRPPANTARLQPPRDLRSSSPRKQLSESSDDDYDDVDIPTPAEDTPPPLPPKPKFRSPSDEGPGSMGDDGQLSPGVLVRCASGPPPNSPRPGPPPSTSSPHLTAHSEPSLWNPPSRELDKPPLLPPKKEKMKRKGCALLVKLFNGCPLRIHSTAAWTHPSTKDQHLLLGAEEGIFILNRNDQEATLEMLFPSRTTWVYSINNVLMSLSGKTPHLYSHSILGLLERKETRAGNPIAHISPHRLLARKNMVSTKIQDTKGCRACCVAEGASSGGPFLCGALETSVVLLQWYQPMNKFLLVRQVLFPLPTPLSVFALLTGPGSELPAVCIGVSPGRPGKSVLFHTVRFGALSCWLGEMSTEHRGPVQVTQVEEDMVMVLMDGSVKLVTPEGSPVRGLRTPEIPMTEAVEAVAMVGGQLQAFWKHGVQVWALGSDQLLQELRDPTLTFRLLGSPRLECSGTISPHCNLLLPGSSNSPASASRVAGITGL
pIC50: −log10 of the molar value.
Measured Property: pIC50

compound="O=C1NCc2c(-c3cncc4nccn34)ncc(Nc3ccc(N4CCC(O)CC4)cn3)c21 [I-376]" target_or_test_system="HPK1 (Homo sapiens (Human), UniProt Q92918)" observed_value="6.00 to 7.00"
compound="CC(C)(O)[C@@H]1CN(c2ccc(Nc3ccc(-c4cnc5cc(F)ccn45)c4c3C(=O)NC4)nc2)CCO1 [I-344]" target_or_test_system="HPK1 (Homo sapiens (Human), UniProt Q92918)" observed_value="> 7.00"
compound="COc1ccc2ncc(-c3ccc(Nc4ccc(N5CCC(O)CC5)cn4)c4c3CNC4=O)n2c1 [I-142]" target_or_test_system="HPK1 (Homo sapiens (Human), UniProt Q92918)" observed_value="> 7.00"
compound="O=C1NCc2c(-c3cnc4cc(F)ccn34)ccc(Nc3ccc(N4CCO[C@H](CO)C4)cn3)c21 [I-454]" target_or_test_system="HPK1 (Homo sapiens (Human), UniProt Q92918)" observed_value="> 7.00"
compound="Cn1ccc2c(-c3ncc(Nc4ccc([C@@H]5CCOC5)c(CN)n4)c4c3CNC4=O)ccnc21 [I-836]" target_or_test_system="HPK1 (Homo sapiens (Human), UniProt Q92918)" observed_value="> 7.00"

Data credit: patent US11021481B2
